B1: glmS ribozyme (parent)
chain: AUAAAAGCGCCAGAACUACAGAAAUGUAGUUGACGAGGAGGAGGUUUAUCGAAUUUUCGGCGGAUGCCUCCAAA

variants of: B1; assay: self-cleavage kobs at 2500 uM GlcN6P; higher = faster cleavage; RNA array; settings: with glucosamine-6-phosphate
Fewer inactive variants are shown than the library holds.
assay endpoint: self-cleavage kobs at 2500 uM GlcN6P (s⁻¹)
Answers are plain numbers, in s⁻¹.

1. C50G C68A	0.000116
2. G43C C67G	0.000454
3. C10A U47G G59U C68U	5.63e-05

Give self-cleavage kobs at 2500 uM GlcN6P for all variants that follow.
1. A15C C16A C68G
2. G13A U65G

Result ::
["2.94e-05", "8.18e-05"]
